Molecular target: human FPR2 (Homo sapiens, UniProt P25090)
Sequence (P25090 whole entry): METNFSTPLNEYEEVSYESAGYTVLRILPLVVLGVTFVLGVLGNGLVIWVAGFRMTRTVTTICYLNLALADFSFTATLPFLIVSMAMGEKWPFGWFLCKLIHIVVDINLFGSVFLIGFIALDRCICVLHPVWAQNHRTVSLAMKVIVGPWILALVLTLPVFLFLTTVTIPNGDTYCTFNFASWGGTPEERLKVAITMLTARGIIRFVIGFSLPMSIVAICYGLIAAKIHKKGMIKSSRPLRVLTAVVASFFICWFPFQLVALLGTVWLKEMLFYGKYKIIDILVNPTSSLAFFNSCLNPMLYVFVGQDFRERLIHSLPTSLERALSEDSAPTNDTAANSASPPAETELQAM
Assay: FPR2 cyclic adenosine monophosphate (cAMP) assay
Assay type: cell-based
Conditions: CHO cells overexpressing human FPR2; forskolin 5 μM; inhibition of cAMP production; HTRF; read-out: hFPR2 cAMP2 EC50
MEASURED QUANTITY: EC50 (nM)

// known answers, use as guide
>>> recorded_result("COc1cc(F)c(-c2c(NC(=O)c3ccc(OC(F)F)cc3)c(=O)n(-c3cc(Cl)ccn3)n2C)c(F)c1")
10
>>> recorded_result("COc1cc(C2CCN(C)CC2)nc(-n2c(=O)c(NC(=O)c3ccc(OC(F)F)cc3)c(-c3c(F)cc(OC)cc3F)n2C)c1")
3

[P] [2H]C([2H])([2H])Oc1cc(F)c(-c2c(NC(=O)c3ccc(OC(F)F)cc3)c(=O)n(-c3cc(C(F)F)ccn3)n2C)c(F)c1
[Q] COc1cc(F)c(-c2c(NC(=O)c3ccc(OC(F)F)cc3)c(=O)n(-c3nc(N4CCN(C)C(=O)C4)ccc3C(F)(F)F)n2C)c(F)c1
[R] COc1cc(F)c(-c2c(NC(=O)c3ccc(OC(F)F)cc3)c(=O)n(-c3cccc(N4CC(F)(F)C4)n3)n2C)c(F)c1
Sort low-to-high on EC50, please. Dear reader, please state the labels in the requested order.
Q, R, P

---

Biological target: human FPR1 (Homo sapiens)
Assay: FPR1 cyclic adenosine monophosphate (cAMP) assay
Conditions: CHO cells overexpressing human FPR1; forskolin 10 μM; inhibition of cAMP production; HTRF; read-out: hFPR1 cAMP2 EC50
MEASURED QUANTITY: EC50

// known answers, use as guide
>>> recorded_result("COc1cc(C2CCN(CCO)CC2)nc(-n2c(=O)c(NC(=O)c3ccc(OC(F)F)cc3)c(-c3c(F)cc(OC)cc3F)n2C)c1 [Example 368]")
"> 10 µM"
>>> recorded_result("COC(=O)c1cncc(-n2c(=O)c(NC(=O)c3ccc(OC(F)F)cc3)c(-c3c(F)cc(OC)cc3F)n2C)c1 [Example 128]")
"0.019 µM"

GET /values?readout=EC50&item= COc1cc(F)c(-c2c(NC(=O)c3ccc(OC(F)F)cc3)c(=O)n(-c3cccc(Cl)c3C)n2C)c(F)c1 [Example 37]
> 10 µM

---

Target: UniProt P21462
Assay: FPR1 cyclic adenosine monophosphate (cAMP) assay
Conditions: CHO cells overexpressing human FPR1; forskolin 10 μM; inhibition of cAMP production; HTRF; read-out: hFPR1 cAMP2 EC50
pEC50: −log10 of the molar value.
MEASURED QUANTITY: pEC50

// known answers, use as guide
>>> recorded_result("COc1cc(F)c(-c2c(NC(=O)c3ccc(OC(F)F)cc3)c(=O)n(-c3cc(OCC4(C)COC4)cc(C)n3)n2C)c(F)c1 [Example 327]")
7.23
>>> recorded_result("CCOc1ccc(Cl)nc1-n1c(=O)c(NC(=O)c2ccc(OC(F)F)cc2)c(-c2c(F)cc(OC)cc2F)n1C [Example 248]")
"< 5.00"

Now turn to the next molecule.
GET /values?readout=pEC50&item= COc1cc(F)c(-c2c(NC(=O)c3ccc(C4CC4)cc3)c(=O)n(-c3ccccc3)n2C)c(F)c1 [Example 16]
< 5.00

---

Molecular target: UniProtKB P21462
Sequence (P21462 1-350): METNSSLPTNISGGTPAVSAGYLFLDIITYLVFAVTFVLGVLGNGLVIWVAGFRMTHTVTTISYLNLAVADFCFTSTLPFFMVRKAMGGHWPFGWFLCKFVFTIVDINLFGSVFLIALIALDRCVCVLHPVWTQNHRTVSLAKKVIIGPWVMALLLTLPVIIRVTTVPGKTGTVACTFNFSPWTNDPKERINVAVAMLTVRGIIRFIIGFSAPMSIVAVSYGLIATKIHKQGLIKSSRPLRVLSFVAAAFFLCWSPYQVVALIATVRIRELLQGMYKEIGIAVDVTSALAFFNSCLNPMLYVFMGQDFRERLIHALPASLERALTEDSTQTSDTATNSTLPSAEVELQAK
Assay: FPR1 cyclic adenosine monophosphate (cAMP) assay
Details: CHO cells overexpressing human FPR1; forskolin 10 μM; inhibition of cAMP production; HTRF; read-out: hFPR1 cAMP2 EC50
pEC50: −log10 of the molar value.
Entries annotated with measured pEC50

// known answers, use as guide
>>> recorded_result("COc1cc(F)c(-c2c(NC(=O)c3ccc(OC(F)F)cc3)c(=O)n(-c3nccc(C)c3C#N)n2C)c(F)c1")
"< 5.00"
>>> recorded_result("COc1cc(F)c(-c2c(NC(=O)c3ccc(OC(F)F)cc3)c(=O)n(-c3nc(CO)ccc3C(F)(F)F)n2C)c(F)c1")
"< 5.00"
>>> recorded_result("COc1cc(F)c(-c2c(NC(=O)c3ccc(Cl)cc3)c(=O)n(-c3ccc(Cl)cn3)n2C)c(F)c1")
"< 5.00"
>>> recorded_result("COc1cc(-n2c(=O)c(NC(=O)c3ccc(OC(F)F)cc3)c(-c3c(F)cc(OC)cc3F)n2C)nc(C(C)(C)O)c1")
6.05

GET /values?readout=pEC50&item= COc1cc(O)c(-c2c(NC(=O)c3ccc(OC(F)F)cc3)c(=O)n(-c3nc(NCCO)ccc3C(F)(F)F)n2C)c(F)c1
< 5.00

GET /values?readout=pEC50&item= COc1cc(F)c(-c2c(NC(=O)c3ccc(OC(F)F)cc3)c(=O)n(-c3cc(Cl)cc(C(=O)N(C)C)c3)n2C)c(F)c1
5.92

GET /values?readout=pEC50&item= COc1cc(F)c(-c2c(NC(=O)c3ccc(C4CC4)cc3)c(=O)n(-c3ccc(C4CC4)cn3)n2C)c(F)c1
6.21

GET /values?readout=pEC50&item= COCCNc1ccc(C(F)(F)F)c(-n2c(=O)c(NC(=O)c3ccc(OC(F)F)cc3)c(-c3c(F)cc(OC)cc3F)n2C)n1
< 5.00

---

Target: UniProt P25090
Assay: FPR2 cyclic adenosine monophosphate (cAMP) assay
Details: CHO cells overexpressing human FPR2; forskolin 5 μM; inhibition of cAMP production; HTRF; read-out: hFPR2 cAMP2 EC50
pEC50: −log10 of the molar value.
MEASURED QUANTITY: pEC50

>>> recorded_result("COCCN1CCN(c2cccc(-n3c(=O)c(NC(=O)c4ccc(OC(F)F)cc4)c(-c4c(F)cc(OC)cc4F)n3C)n2)CC1")
8.05
>>> recorded_result("CC(C)Oc1cc(OCCO)nc(-n2c(=O)c(NC(=O)c3ccc(OC(F)F)cc3)c(-c3c(F)cc(Cl)cc3F)n2C)c1")
7.96
>>> recorded_result("COc1cc(F)c(-c2c(NC(=O)c3ccc(OC(F)(F)F)cc3)c(=O)n(-c3cc(C)cc(C)n3)n2C)c(F)c1")
8.10

---

Molecular target: human FPR2 (Homo sapiens, UniProt P25090)
Test: FPR2 cyclic adenosine monophosphate (cAMP) assay
Assay type: cell-based
Settings: CHO cells overexpressing human FPR2; forskolin 5 μM; inhibition of cAMP production; HTRF; read-out: hFPR2 cAMP2 EC50
MEASURED QUANTITY: EC50 (nM)

// known answers, use as guide
>>> recorded_result("COc1cc(F)c(-c2c(NC(=O)c3ccc(OC(F)F)cc3)c(=O)n(-c3cccc(C(C)O)n3)n2C)c(F)c1 (stereo not shown)")
10
>>> recorded_result("COc1cc(F)c(-c2c(NC(=O)c3ccc(OC(F)F)cc3)c(=O)n(-c3cc(OC)ccc3Cl)n2C)c(F)c1")
13
>>> recorded_result("COc1cc(F)c(-c2c(NC(=O)c3ccc(OC(F)F)cc3)c(=O)n(-c3cc(Cl)ccc3Cl)n2C)c(F)c1")
9
>>> recorded_result("COc1cc(F)c(-c2c(NC(=O)c3ccc(OC(F)F)cc3)c(=O)n(-c3nc(C(C)(C)O)ccc3C#N)n2C)c(F)c1")
2

[1] COc1cc(F)c(-c2c(NC(=O)c3ccc(OC(F)F)cc3)c(=O)n(-c3cccc(NC(=O)C(C)(C)C)n3)n2C)c(F)c1
[2] COc1cc(F)c(-c2c(NC(=O)c3ccc(OC(F)F)cc3)c(=O)n(-c3nc(N4CCC(C)(O)CC4)ccc3C(F)(F)F)n2C)c(F)c1
Returns the identifier with the smallest measured EC50 among 1 and 2 . When you have decided, please share the label of that item.
2

---

Biological target: human FPR1 (Homo sapiens, UniProt P21462)
Sequence (P21462 1-350): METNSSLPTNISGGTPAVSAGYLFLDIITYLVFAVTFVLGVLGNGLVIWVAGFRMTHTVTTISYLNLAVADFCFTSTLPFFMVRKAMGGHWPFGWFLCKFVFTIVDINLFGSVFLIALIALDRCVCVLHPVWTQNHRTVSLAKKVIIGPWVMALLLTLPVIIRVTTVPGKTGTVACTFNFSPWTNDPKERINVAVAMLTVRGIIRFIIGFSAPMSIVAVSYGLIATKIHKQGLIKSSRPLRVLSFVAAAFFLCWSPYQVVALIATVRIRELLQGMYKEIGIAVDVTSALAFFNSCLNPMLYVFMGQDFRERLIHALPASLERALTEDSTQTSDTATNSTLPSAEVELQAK
Assay: FPR1 cyclic adenosine monophosphate (cAMP) assay
Settings: CHO cells overexpressing human FPR1; forskolin 10 μM; inhibition of cAMP production; HTRF; read-out: hFPR1 cAMP2 EC50
pEC50: −log10 of the molar value.
Entries annotated with measured pEC50

// known answers, use as guide
>>> recorded_result("COc1ccc(-c2c(NC(=O)c3ccc(OC(F)F)cc3)c(=O)n(-c3ncccc3C(F)(F)F)n2C)cc1Cl")
"< 5.30"
>>> recorded_result("COc1cc(OCCCO)nc(-n2c(=O)c(NC(=O)c3ccc(OC(F)F)cc3)c(-c3c(F)cc(OC)cc3F)n2C)c1")
"< 5.00"

GET /values?readout=pEC50&item= COc1cc(F)c(-c2c(NC(=O)c3ccc(OC(F)F)cc3)c(=O)n(-c3cccc(CO)n3)n2C)c(F)c1
< 5.00
